# ASSAY_NAME: label from the status in PepcDB records;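 also: failed if final PepcDB status was selected cloned or expressed and not failed if soluble or beyond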
ENDPOINT: protein production

EDPFQPEIKVRCVCGNSLETDSMIQVIWDELTAFIPCEDPRCHVWQHVGCVILPDKPMDGNPPLPESFYCEICRLT :: not failed
MVSVNLPWELVEEILCRVPPQSLVKFRTVCKQWNSLFDDNKFVNDHFVQSQPQLIFRTESKIYSVAVNFKGPRIEVHELPLAIPGLKSEMPIRLHDYVDCDGLLFCTSYFNGVLIWNPWLRQTRFFPSIHRYPVTYDIGYDNKKQYKMLDYYKCEGDSSIKSIIYEIGLYSKKVKDLESDSTWSIFQSNSVSLNGTLYWAGVDVNNGIFIRSFSFSTEKPRTFCSLPFMYDDDNVLALAVFRKDRLSLLNLCNKTSEIKIWLTKNNINDREVGLEEDVVWINLMTVLIPNFPKFSFYWYNRPDLTYFLDNDDAKRLVICCYDETDQAYIYIVKGDMFKKIKIDQYEVLSDYSRPHFHTYIPSLVRPSRVKEDNKN :: failed
RSRIDTALNRGRCGLWDWDLSRGRIFWSQSMFTILGLESRNDLLTFGEVNALVKGEDIDLFAIADELMAGRVDHIDHSFQMRHAHGHWIWLRMRCELTQEAGATEKHLIGIAVDITEQKSLAERSVEADLRLRDAIETIPEAFVLWDAENRLVLCNSHFQRL :: failed
QKVKTIFPHTAGNNKTLLSFAQGDVLTLLIPEEKDGWLYGEHDTTKARGWFPSSYTKLL :: not failed

====

# ASSAY_NAME: label from the status in PepcDB records
ENDPOINT: protein production

QQMETGDQRFGDLVFRQLAPNVWQHTSYLDMPGFGAVASNGLIVRDGGRVLVVDTAWTDDQTAQILNWIKQEINLPVALAVVTHAHQDKMGGMDALHAAGIATYANALSNQLAPQEGMVAAQHSLTFAANGWVEPATAPNFGPLKVFYPGPGHTSDNITVGIDGTDIAFGGCLIKDSKAKSLGNLGDADTEHYAASARAFGAAFPKASMIVMSHSAPDSRAAITHTARMADKLR :: not failed
MSLYDLKPNEKGRIKDIKGDERLSKRLSALGFIEGTEVEVKMMAPLGDPILVNVRGFNIAIRKNDAKNIFLKEAKLEHHHHHH :: not failed
MTQHITRMRREIDEIPEAVQRLLDHGAQDVARVAAVLRLRDPSFVATVARGSSDHVCTYLSYAAELLLGLPVASLGPSVASVYDARLRLDRALCLAVSQSGKSPDIVAMTRNAGRDGALCVALTNDAASPLAGVSAHTIDIHAGPELSVAATKTFVTSAVAGLMLLADWAEDDGLRAALGNLPETLAAASRIDWPEMRVAIGARPSLFTLGRGTSLAVSNEAALKFKETCQLHAESYSSAEVLHGPVSIVEEGFPVLGFAAGDAAEAPLAEIADQIAAKGATVFATTGRVTRARVLEHVRSGHALTDPLSLIVSFYSMVEAFASERGIDPDAPRHLNKVTETV :: not failed

====

# ASSAY_NAME: label from the status in PepcDB records
ENDPOINT: protein production

NSESKSTPKRLHVSNIPFRFRDPDLRQMFGQFGKILDVEIIFNERGSKGFGFVTFENSADADRAREKLHGTVVEGRKIEVNNATARVMTN :: not failed
MIAHPVVGIVGIAGAYGRWLAQFLRTRMGLEVIGVDPALPDGLDDATLVARADVLIFSAPIRHTAALIERYAALAGARAAEQLWLDVTSIKQAPVAAMLASQAEVVGLHPMTAPPKSPTLKGRVMVVCRARVQRWSGWVDALCSALQAECVYATPEHHDRVMALVQAMVHATHLAQAGTLRDYAPLLGELRTLMPYRSASFELDTAVIARILSLNPSIYEDIQFGNPYVAEMLDRLLAQLQELRGLVVQGDDAARLRFRQAFLDANAQALQGDSLAAGNYTYERVGYLLADLTEPLTLSVYLPEDQPGSLRVLLHVFEQHGVNLSSIHSSRTPGGELHFRMGFEPESDRAALGRAAAQIDADRIGRVLERVDRER :: failed
EVLLETLNATELNETTASLAVHQTMKENGQLFVSNSMAIRYLDRFMDSRPYRMFGNRGINGIDGIVSTALGMSAIAPTQQNVLLIGDLALYHDMNGLFLAKRYQLPLTIVLLNNNGGGIFSFLSQRTLREDDFEPLFGTPLDLDFSLVAELYGASYQEVKTIAELKQILQAAAEEPQFQVIEVKGNRQEN :: not failed
SPARPFTVRAPASSANLGPGFDSLGLSVPLYTTLRVTPQDKAEVVPLGTELADTPADESNYVYRAMTLAAKRAGRTLPPARVEIETEVPLARGLGSSAAALVAGVVAGNELLGRPLDDETVLDVTAREEGHPDNVAPALFGGIVVATLDKLGTHY :: failed
MSQAFPGPHGAPATGHVPVLRLGEVLLVTLQGDLHDSTAQQLQEDLAETIVRSGATGVVIDVSGVEIVDSFLGRILAEIAGQTGLLAARTVLVGMRPAVAITLVELGLTLPGVHTALSTEVAMELLRQQAPSSRFGGLRQESQ :: not failed

====

# ASSAY_NAME: label from the status in PepcDB records
ENDPOINT: protein production

MLVWLSDSQAVALVGLVGGIALGLAARLGRFCTLGAIEDLLYGGSDVRMRMWVLAIGAAMAGSFGLMGLGWLDPGQSYYLSIRWMPLASILGGLMFGYGMALAGNCGYGSIARLGGGDLRAFVIVLVMGVFTYVTLAGPLAPLRNLLFPQIEVAGDLPPGLAHHAHALTGLPVHVIGIGIGLILCLGALSSRDMRQEPKSIFWSLVVAAAIVGGWAGSYWVYQHGFDGLQVVSHSFSAPVGESILYAMTGSVRPLSFAVGSVAGVWAGAFIGSLIKGHFRWEACEDPRELRRQILGAAIMGTGAVIAMGCTVGQGLTAFSLLAISAPVTFLAIFAGAALGLRQLIEGFSAAE :: failed
MPDTKIVDANNKFGFKLFSEIAKQDGNAKNISVSPTSVAIALAMTYNGASGSTQKAMAKTLELQGISLPELNSGYASLNKLLQNPGENVQLTIANSLWVNQDVSLRPDFVQTTRDFYQAKVTNLDFQNVTAVNTINSWVQENTKGKIDKIVDNIEPNQALFLINAIYFNGKWSNAFDKSQTTPQTFYTASGQQKQHPMMSQTGEYRYYETPQFQSVSLPYGQDGKVSLYIFLPTKNSNLKAFSQNLNAENWEKWMPQFRNREGSIRLPRFQTDYDITLNDALKSLGMAEAFSNKANFSGIGDNLTISQVRHKTVIEVNEEGTEASAATSVGMVATSLREPQQPFKMIVDRPFFYAIRDNQSKNILFMGAVVEPN :: failed

====

# ASSAY_NAME: label from the status in PepcDB records
ENDPOINT: protein production

SLTMDVPPTIHVPLPPTSYPAFDAAIFTDIGGRKHQEDRFTLCPQLVPGRDDCAFFGVFDGTVGDFASENVKDLVVPQLISSPAWQEVTEMLRSDVPATEVDEKLPQLLDQAVDDMYKNADNELVKMCEQLNKDYASSTSVTAVLAKGFVAVGHLGDSRIAMGVETPNGLNCEFLTVDHKPDMPHEKLRIMRNGGSVEYLHNHNNKPFIRGGDFSFRKSRGEQPMQLQYSRAFGGKDLKMYGLSNQPDVRVVRVTPQHRVMILATDGLWDVMSAAQAVEIAMQARQEGRNPAQALVEMTLAEQQSRNQSADNITAMTVFFKKTD :: not failed
MDNSGKEAEAMALLAEAERKVKNSQSFFSGLFGGSSKIEEACEIYARAANMFKMAKNWSAAGNAFCQAAQLHLQLQSKHDAATCFVDAGNAFKKADPQEAINCLMRAIEIYTDMGRFTIAAKHHISIAEIYETELVDIEKAIAHYEQSADYYKGEESNSSANKCLLKVAGYAALLEQYQKAIDIYEQVGTNAMDSPLLKYSAKDYFFKAALCHFCIDMLNAKLAVQKYEELFPAFSDSRECKLMKKLLEAHEEQNVDSYTESVKEYDSISRLDQWLTTMLLRIKKTIQGDEEDLR :: not failed

====

# ASSAY_NAME: label from the status in PepcDB records
ENDPOINT: protein production

MANPNEAYRHYMKKLSYETDIADLSIDIKKGYEGIIVVDVRDAEAYKECHIPTAISIPGNKINEDTTKRLSKEKVIITYCWGPACNGATKAAAKFAQLGFRVKELIGGIEYWRKENGEVEGTLGAKADLFWNMKKESLEHHHHHH :: not failed
MSLLDFYIIWRGDMLFATVVPIAYFLLYLKNKQVTFVFLKFVMAFVICLYWATYACTFFYSYYDVIGWFKILIIPVFSIYSGFVLHLLKSKKKKVFFLISIVYIIFWCILIFWHCMSSM :: failed
MIRFEIHGENLTITDAIRNYIEEKIGKLERYFNDVPNATAHVKVKTYQNSATKIEVTIPLKKVTLRAEERNDDLYAGIDLINNKLERQVRKYKTRVNRRNRNRGEQEAFASLPEEKEAVEIQNDENEADNEIEIIRAKNFSLKPMDSEEAVLQMDLLGHDFFIFTDRETDGTSIVYKRKDGKYGLIETTELEHHHHHH :: failed
MSLATQQLGIIGLFVPTFFGSYYGTILKQTDLELRAVHRHVVVATGCGESTPREQALEAVRFLIGRDCDGVVVISHDLHDEDLDELHRMHPKMVFLNRAFDALPDASFCPDHRRGGELAAATLIEHGHRKLAVISGPFTASDNVERLDGFFDELARHGIARDSVPLIESDFSPEGGYAATCQLLESKAPFTGLFCANDTMAVSALARFQQLGISVPGDVSVIGYDDDYSAAYAAPALTSVHIPTAELTQNAVRWLINQCYGTKWEIFREFPVTVSMRASVAREGHHHHHH :: not failed
MQEKYNFGKVSSQHKNYSKIETMLRPKGFDKLDHYFRTELDIDLTDETIELLLNSVKAAFGKLFYGAEQRARWNGRDFIALADLNITKALEEHIKNFQKIEQDMGVDELLEYIAFIPPVEMNVGEDLKSEYRNIMGGLLLMHADVIKKATGERKPSREAMEFVAQIVDKVF :: not failed
MTGFDADDAAALIQSYVDDHGLLSFLGVSVEDASDGEMRLRIPYHEKLTNHGPGEGDVHGGIAATLIDTAGGLAVRSALPKPVAANVATIDLNVSYLRPARGDLIADASVVRVGSTVGVAEISVVTPADTADAEPTEVAVGRGSFRVFRDDLEHHHHHH :: failed
MTLTSGDKQGNTPGQASDTERWASLIGGGALVLLGLRQASLRGVLTALAGGGLIYQGATKQSTIQQAQEAIGINKPIKVEKTVTINKPADELYRYWHNFENLPTFMKHLKSVKVYNEKRSHWIANAPLGNSVEWDADILEDRENEFISWASAEGADVENSGFVRFQKAPGDVPGQAASRLRGTEVKVVLEYNLPGGALAAVVAKLFGEEPEQQIGDELRRFKMLMEAGEIATTEGQPSGRK :: failed
MTYEIVIAGFGGQGVLSMGKILAYSGLMEDKEVSWMPSYGPEQRGGTSNVTVIVSDEQVSSPVLNEYDIVIVLNQPSLDKFEARVKKGGILVYDPDSIVLKNKRDDIQIYEVDATQESLRMGNQK :: failed
MVKYAKTPKSFINIKDLGFALLETDELDGTIKYSNVTQTRGLQEISVETGGEIVNAYADGSIIESGTTDGEGKISMTMHAFPQEIRELIFNEIYNEAGVYSEERGKQNNYVAVWFKRERRDGSYQQVGLTKVMFADPNLEGKTAEEDWEFSSEESEGTAMHRIADGKRKILFDSSREGANVDSFFQELLNGAYDSKTEVDTGDSTTGESAAEALEHHHHHH :: failed
MRGEFLSRSADETREYARRFASGLKPGDTVCLTGPLGAGKTEFMRGITEAFGCEEQLSSPTFSLMNIYEGLLRGQPFELHHFDLYRLESEKELDSAGFDDYLSGPFLSVVEWGERFASLDRRYTRRVQLFIAGESQRKIVIT :: failed
MLIYEGHIDKLIRRGQEKGLDIFNLIRAAVINPVEHYGLNVGLLREGDPADFITVDDLKSFNVLSTFIDGECVYENGKVLFPMKLEHHHHHH :: not failed
MSSSSGNQNSKEHKVAVTHDLGKTNVPEHPKRVVVLELGFIDTLLDLGITPVGVADDNKAKQLINKDVLKKIDGYTSVGTRSQPSMEKIASLKPDLIIADTTRHKKVYDQLKKIAPTIALNNLNADYQDTIDASLTIAKAVGKEKEMEKKLTAHEEKLSETKQKISANSQSVLLIGNTNDTIMARDENFFTSRLLTQVGYRYAISTSGNSDSSNGGDSVNMKMTLEQLLKTDPDVIILMTGKTDDLDADGKRPIEKNVLWKKLKAVKNGHVYHVDRAVWSLRRSVDGANAILDELQKEMPAAKKLEHHHHHH :: failed
METAICGRLALAPSSLFNSKSGDKHLVSKGPCVNRSILMTLSTSAALGKGGGVLDKPIIEKTTPGRESEFDLRKSKKIAPPYRVILHNDNFNKREYVVQVLMKVIPGMTVDNAVNIMQEAHINGLAVVIVCAQADAEQHCMQLRGNGLLSSVEPDGGGC :: failed
MNTKALIGILMFLLLITWSSKGFAKTAEATVTVNIRNSPSTSSKVLGVFPKGFKAQVLSSTGGWVKISFDGVVGYVKSDYIKLTKDSSTSNAVKSSTNTRQVVSQMPMATVLKDNARVRSNMSTSSKILKTLKKGSKVYVLARERNGWIKVKTLDGTVGYMAYYLLKMSTSHTTKISSRGGYDREAQVAYNGSLADRILGFAKNLLGIRYRYGGSSPSTGFDCSGFVQYVFRNFGISLERTAADMAATDGVRISYNELRPGDLVFFDTDGGRNYINHVGIYLGGGKYIHASSARGCVTISDLTSKYGTSFMMAKRVIR :: failed
